- test_method_notes: Caco-2 permeability assay (bi-directional)
- reported_conditions: human, Caco-2, pH 7.4, Mean % Recovery, B2A; positive control
quantity: recovery at 120 min (%)
Quick reminder: number only, in %, skip the unit.

Query: Specify measured recovery at 120 min for Cc1cc(=O)n(-c2ccccc2)n1C [Antipyrine, antipyrine] .
Response: 87.8

----------
- test_method_notes: Caco-2 permeability assay (bi-directional)
- reported_conditions: human, Caco-2, pH 7.4
Where no end group is shown, it is not given here.
quantity: efflux ratio at 120 min, 100 μM
The response must contain the number and no unit.

Query: Specify measured efflux ratio at 120 min, 100 μM for LKCHKLVPPVWKT [Synthetic peptide 1] .
Response: 0.137

----------
- test_method_notes: Caco-2 permeability assay (bi-directional)
- reported_conditions: human, Caco-2, pH 7.4
quantity: Papp B→A at 120 min (×10⁻⁶ cm/s)
Quick reminder: number only, in ×10⁻⁶ cm/s, skip the unit.

Query: Specify measured Papp B→A at 120 min for Cc1cc(=O)n(-c2ccccc2)n1C [Antipyrine, antipyrine] .
Response: 39.6

----------
- test_method_notes: Caco-2 permeability assay (bi-directional)
- reported_conditions: human, Caco-2, pH 7.4, Mean % Recovery, B2A; 100 μM
Where no end group is shown, it is not given here.
quantity: recovery at 120 min, 100 μM (%)
Quick reminder: number only, in %, skip the unit.

Query: Specify measured recovery at 120 min, 100 μM for LKCHKLVPPVWKT [Synthetic peptide 1] .
Response: 96.6

Origin of values: patent US20250204535A1
